Listing: GI50 of selected molecules
# System: SF-268
# ASSAY TEXT: NCI tumour cell line growth inhibition, 48 h
The source made the active and inactive calls. No stated cut-off is given here; in the data, active = GI50 up to about 1.1 µM and inactive = higher.

MOLECULE: CC(=O)OCCC1c2ccccc2-n2nc(-c3ccccc3)c(O)c21 (stereo not drawn)
GI50: 34.7 µM (inactive)

MOLECULE: O/N=N\c1nc(-c2ccccn2)nc2ccccc12
GI50: 11.7 µM (inactive)

MOLECULE: Cc1c(F)c(N)c2c(=O)cc(-c3ccc(N)c(F)c3)oc2c1F
GI50: 23.1 µM (inactive)

MOLECULE: CCC(C)Cn1c(C)nc2c1C(=O)c1ccccc1C2=O (stereo not drawn)
GI50: 23.9 µM (inactive)

MOLECULE: CC1=CC(C)C(O)C(C)/C=C\C(O)C/C=C(/C)C(=O)CC(O)C(C)\C=C/C=C\C=C/C(=O)NC2=C(O)C(=O)c3c(cc(C)c(O)c3C1=O)C2=O (stereo not drawn)
GI50: 94.4 µM (inactive)

MOLECULE: Cc1n[nH]/c(=N\S(=O)(=O)c2ccc(/N=N/c3c(O)c(C(=O)O)cc4ccccc34)cc2)s1
GI50: > 100 µM (inactive)

MOLECULE: COC1(OC)CC2CCCCC2=C(C)N1S(=O)(=O)c1ccccc1 (stereo not drawn)
GI50: > 100 µM (inactive)

MOLECULE: CC(=O)OCC(=O)[C@@]12OC(C)(C)O[C@@H]1C[C@H]1[C@@H]3CC=C4C[C@@H](O)CC[C@]4(C)[C@H]3CC[C@@]12C
GI50: 31.6 µM (inactive)

----------
# System: SF-268
# ASSAY TEXT: NCI tumour cell line growth inhibition, 48 h
Calls of active or inactive are those of the source. Cut-off read from the data, not from the text of the source: active = GI50 up to about 1.1 µM and inactive = higher.
Listing: GI50 of selected compounds

COMPOUND: O=S1(=O)OCCOS(=O)(=O)C1Cc1ccccc1
GI50: 39.1 µM (inactive)
//
COMPOUND: COc1c(Br)cc(/C=C(\C#N)c2cccnc2)cc1Br
GI50: 67.6 µM (inactive)
//
COMPOUND: CC(=O)C1=C(C)N2C(=NC3=C(CCc4ccccc43)C2c2ccc(Cl)cc2)S1 (stereo not given)
GI50: > 87.9 µM (inactive)
//
COMPOUND: CC1(C)C(=O)C(C)(C)C1=S
GI50: > 100 µM (inactive)
//
COMPOUND: C[C@@H]1CC[C@@]2(NC1)O[C@H]1C[C@H]3[C@@H]4CC[C@H]5C[C@@H](O)CC[C@]5(C)[C@H]4CC[C@]3(C)[C@H]1[C@@H]2C
GI50: > 100 µM (inactive)
//
COMPOUND: Cc1ccc(NC(=O)C(=O)C2C(=O)C3=C(CC2(C)C)NC2C=CC=CC2S3)c(C)c1 (stereo not given)
GI50: 36.8 µM (inactive)
//
COMPOUND: Clc1ccc(Cc2nc3ccccc3nc2-c2cccc(Cl)c2)cc1
GI50: 18.3 µM (inactive)
//
COMPOUND: CCOc1nc(N)nc(C)c1/N=N/c1ccc(Cl)cc1
GI50: > 100 µM (inactive)
//
COMPOUND: CC(C)CNP(=O)(NCC(C)C)Oc1ccc(CC(NC(=O)OCc2ccccc2)C(=O)OCc2ccccc2)cc1 (stereo not given)
GI50: 17.6 µM (inactive)
//
COMPOUND: COc1ccccc1-c1cc(=O)c2ccc(OC)c(OC)c2o1
GI50: > 100 µM (inactive)

----------
Listing: GI50 of selected compounds
# Tested on: NCI-H460
# ASSAY TEXT: NCI tumour cell line growth inhibition, 48 h
The source made the active and inactive calls. No stated cut-off is given here; in the data, active = GI50 up to about 1.1 µM and inactive = higher.
PROPERTY LABEL: GI50

COMPOUND: CCCOc1ccc(/C(Cl)=C(\C=O)c2ccc(OC)c(OC)c2)cc1OCCC
SYSTEM NAME: NCI-H460
RESULT: 7.1 µM (inactive)

COMPOUND: Clc1ccc(Cc2nc3ccccc3nc2-c2cccc(Cl)c2)cc1
SYSTEM NAME: NCI-H460
RESULT: 16.3 µM (inactive)

COMPOUND: O=C1OC2c3ccccc3C(=O)C2(c2ccccc2)N1c1ccccc1 (stereo not given)
SYSTEM NAME: NCI-H460
RESULT: > 200 µM (inactive)

COMPOUND: Cc1c(F)c(N)c2c(=O)cc(-c3ccc(N)c(F)c3)oc2c1F [AMINOFLAVONE]
SYSTEM NAME: NCI-H460
RESULT: 0.199 µM (active)

COMPOUND: [N-]=[N+]=Nc1nnc(CCCCc2nnc(N=[N+]=[N-])o2)o1
SYSTEM NAME: NCI-H460
RESULT: > 100 µM (inactive)

COMPOUND: Cc1noc(NC(=O)Nc2ccccc2F)c1C#N
SYSTEM NAME: NCI-H460
RESULT: 6.55 µM (inactive)

COMPOUND: CC1(C#N)CC(C)(C)C(/C=C2/CC(C)(C)C(/C=C3/OC(=N)CC3(C)C)=N2)=N1 (stereo not given)
SYSTEM NAME: NCI-H460
RESULT: 15.8 µM (inactive)

COMPOUND: CC(C)(OCc1ccccc1)c1ccccc1P(c1ccccc1)c1ccccc1
SYSTEM NAME: NCI-H460
RESULT: 49.7 µM (inactive)

COMPOUND: COc1c(O)cc(C(=O)O[C@@H]2Cc3c(O)cc(O)cc3O[C@@H]2c2cc(O)c(O)c(O)c2)cc1O
SYSTEM NAME: NCI-H460
RESULT: 24.5 µM (inactive)

COMPOUND: CC(=O)N(C(=O)CC(=O)N/N=C\c1ccc(Br)c(N(CCC#N)CCC#N)c1)c1ccc(Cl)cc1
SYSTEM NAME: NCI-H460
RESULT: 74.5 µM (inactive)

----------
# System: SN12C
# ASSAY TEXT: NCI tumour cell line growth inhibition, 48 h
The source made the active and inactive calls. Rule as the data show it: active = GI50 up to about 1.1 µM and inactive = higher.
PROPERTY LABEL: GI50

COMPOUND: CC1(C)CCCCCCCCCC(C)(CCCCCCCCCCCCO)C1=O (configuration not stated)
SYSTEM NAME: SN12C
RESULT: 17.4 µM (inactive)
//
COMPOUND: COc1ccc(OC)c(NC(=O)C(=O)C(C(C)=O)c2nc3ccc(Cl)cc3nc2O)c1 (configuration not stated)
SYSTEM NAME: SN12C
RESULT: > 50 µM (inactive)
//
COMPOUND: CCSc1nc(N/N=C/c2cccs2)c2cnn(CO)c2n1
SYSTEM NAME: SN12C
RESULT: 6.44 µM (inactive)
//
COMPOUND: COc1ccc(/N=N/C(=N/NC(=O)c2ccc(C)cc2)c2ccc(N(CCC#N)CCC#N)cc2OC)cc1
SYSTEM NAME: SN12C
RESULT: > 100 µM (inactive)
//
COMPOUND: O=c1c2cc(Br)ccc2oc2ccc(Br)cc12
SYSTEM NAME: SN12C
RESULT: > 100 µM (inactive)
//
COMPOUND: C=C1C[C@@H]2C[C@@H](C)CC(O)[C@]2(CCCN)C1O (some centres not stated)
SYSTEM NAME: SN12C
RESULT: > 100 µM (inactive)
//
COMPOUND: Cn1c2ccc([N+](=O)[O-])cc2c(=O)c2c(O)cc(O)cc21
SYSTEM NAME: SN12C
RESULT: 31.4 µM (inactive)

----------
# Test system: OVCAR-5
# ASSAY TEXT: NCI tumour cell line growth inhibition, 48 h
Calls of active or inactive are those of the source. Cut-off read from the data, not from the text of the source: active = GI50 up to about 1.1 µM and inactive = higher.
Listing: GI50 of selected molecules

MOLECULE: COc1c(O)cc(C(=O)O[C@@H]2Cc3c(O)cc(O)cc3O[C@@H]2c2cc(O)c(O)c(O)c2)cc1O
GI50: 39.4 µM (inactive)
--
MOLECULE: O=C1NC2(CCCCC2)N=C2C(Cl)CCCC12Cl (stereo not given)
GI50: > 100 µM (inactive)
--
MOLECULE: Cc1ccc(S(=O)(=O)c2c(O)c3ccc(O)c(C)c3oc2=O)cc1
GI50: > 100 µM (inactive)
--
MOLECULE: O=C(Nc1cccc(O)c1)C(=O)C(C(=O)c1ccccc1F)C1OC(=O)c2ccccc21 (stereo not given)
GI50: 57 µM (inactive)
--
MOLECULE: Cn1cc(NC(=O)c2cc(NC(=O)CCCCCCCCCCC(=O)Nc3cc(C(=O)Nc4cc(C(=O)NCCC(=N)N)n(C)c4)n(C)c3)cn2C)cc1C(=O)NCCC(=N)N
GI50: 67.3 µM (inactive)
--
MOLECULE: COC(=O)/C=C(C)/C=C/C1OC(C)OCC1O (stereo not given)
GI50: > 100 µM (inactive)
--
MOLECULE: O=C(Cl)C1=C(c2ccccc2)C1c1ccccc1 (stereo not given)
GI50: > 100 µM (inactive)
--
MOLECULE: COc1cc2c(cc1OC)-c1cc3ccccc3c[n+]1CC2
GI50: > 100 µM (inactive)
--
MOLECULE: CNc1ccc2c(c1)Cc1ccccc1-2
GI50: 98.6 µM (inactive)
--
MOLECULE: Cn1c2ccc([N+](=O)[O-])cc2c(=O)c2c(O)cc(O)cc21
GI50: > 100 µM (inactive)
--
MOLECULE: CC(=O)/N=C1\NC(=O)/C(=C/c2ccc(/C=C3/C(=O)N/C(=N\C(C)=O)N3C)cc2)N1C
GI50: > 100 µM (inactive)
--
MOLECULE: CC1OC(OCC2OC(Oc3ccc(C4CC(=O)c5c(O)cc(O)cc5O4)cc3O)C(O)C(O)C2O)C(O)C(O)C1O (stereo not given)
GI50: > 100 µM (inactive)
--
MOLECULE: Oc1ccc2c3c1OC1C(=NN=C4CCC5(O)C6Cc7ccc(O)c8c7C5(CCN6CC5CC5)C4O8)CCC4(O)C(C2)N(CC2CC2)CCC314 (stereo not given)
GI50: > 100 µM (inactive)
--
MOLECULE: Cc1cc(-c2nc3ccc(F)cc3s2)ccc1NC(=O)C(N)CCCCN (stereo not given)
GI50: 7.64 µM (inactive)
--
MOLECULE: COc1ccccc1-c1cc(=O)c2ccc(OC)c(OC)c2o1
GI50: > 100 µM (inactive)
--
MOLECULE: O[C@@]12Cc3c([nH]c4ccccc34)[C@@H]3Oc4cccc5c4[C@@]31CCN(CC1CC1)[C@@H]2C5
GI50: 29 µM (inactive)
--
MOLECULE: O=S(=O)(N/N=C/c1ccc(/C=N/NS(=O)(=O)c2ccccc2)cc1)c1ccccc1
GI50: 4.36 µM (inactive)
--
MOLECULE: CCCCCCCCCCCCCCCCCc1cc(Cl)nc(Cl)n1
GI50: > 100 µM (inactive)
--
MOLECULE: CC(C)CNP(=O)(NCC(C)C)Oc1ccc(CC(NC(=O)OCc2ccccc2)C(=O)OCc2ccccc2)cc1 (stereo not given)
GI50: > 100 µM (inactive)
--
MOLECULE: COc1cc(C2c3cc4c(cc3OC(O)C2C)OCO4)cc(OC)c1O (stereo not given)
GI50: 46.8 µM (inactive)
